Test system: Fusarium verticillioides
Experiment: Antifungal activity against Fusarium moniliforme MTCC 156 after 24 to 48 hrs by agar diffusion method
Format: functional
Would you kindly list inhibition zone (IZ) for each of these molecules?
One number for each entry, in mm.

Field: example entries. Status: answers known.
{"columns": ["MOLECULE", "NUMERIC READOUT"],
 "data": [
  ["CCCCc1nc(Cl)c(C2CC(c3cc(Cl)cc(Cl)c3O)=NN2c2nc(-c3ccc(Cl)cc3)cs2)[nH]1 (stereo unspecified)", 15],
  ["CCCCc1nc(Cl)c(C2CC(c3ccc(OC)cc3)=NN2c2nc(-c3ccc(Cl)cc3)cs2)[nH]1 (stereo unspecified)", 12],
  ["CCCCc1nc(Cl)c(C2CC(c3cc(Cl)cc(Br)c3O)=NN2c2nc(-c3ccc(Cl)cc3)cs2)[nH]1 (stereo unspecified)", 10],
  ["CCCCc1nc(Cl)c(C2CC(c3cc(Cl)cc(I)c3O)=NN2c2nc(-c3ccc(Cl)cc3)cs2)[nH]1 (stereo unspecified)", 12],
  ["CCCCc1nc(Cl)c(C2CC(c3cc(Cl)c(C)c(I)c3O)=NN2c2nc(-c3ccc(Cl)cc3)cs2)[nH]1 (stereo unspecified)", 14]
]}

Look up inhibition zone (IZ) for the entries below, preserving their order.
1. CCCCc1nc(Cl)c(C2CC(c3cc(Br)cc(Br)c3O)=NN2c2nc(-c3ccc(Cl)cc3)cs2)[nH]1 (stereo unspecified)
2. CCCCc1nc(Cl)c(C2CC(c3cc(C)ccc3O)=NN2c2nc(-c3ccc(Cl)cc3)cs2)[nH]1 (stereo unspecified)
3. CCCCc1nc(Cl)c(C2CC(c3ccc(Cl)cc3)=NN2c2nc(-c3ccc(Cl)cc3)cs2)[nH]1 (stereo unspecified)
4. CCCCc1nc(Cl)c(C2CC(c3cc(C)cc(I)c3O)=NN2c2nc(-c3ccc(Cl)cc3)cs2)[nH]1 (stereo unspecified)
5. CCCCc1nc(Cl)c(C2CC(c3ccccc3O)=NN2c2nc(-c3ccc(Cl)cc3)cs2)[nH]1 (stereo unspecified)
6. CCCCc1nc(Cl)c(C2CC(c3cc(I)cc(I)c3O)=NN2c2nc(-c3ccc(Cl)cc3)cs2)[nH]1 (stereo unspecified)

14
11
11
10
13
16

---

System: Aspergillus niger
Assay: Antifungal activity against Aspergillus niger MTCC 281 after 24 to 48 hrs by agar diffusion method; further: test concentration or dose not given here
Format: functional
Task for the reader: assign each of the following compounds its reported inhibition zone (IZ).

{"columns": ["COMPOUND", "inhibition zone (IZ)"],
 "data": [
  ["CCCCc1nc(Cl)c(C2CC(c3ccc(N)cc3)=NN2c2nc(-c3ccc(Cl)cc3)cs2)[nH]1 (stereo not drawn)", "14 mm"]
]}

List inhibition zone (IZ) for every entry below, keeping the order given.
1. CCCCc1nc(Cl)c(C2CC(c3cc(Cl)c(C)c(I)c3O)=NN2c2nc(-c3ccc(Cl)cc3)cs2)[nH]1 (stereo not drawn)
2. CCCCc1nc(Cl)c(C2CC(c3cc(Cl)c(C)cc3O)=NN2c2nc(-c3ccc(Cl)cc3)cs2)[nH]1 (stereo not drawn)
3. CCCCc1nc(Cl)c(C2CC(c3cc(Cl)cc(Cl)c3O)=NN2c2nc(-c3ccc(Cl)cc3)cs2)[nH]1 (stereo not drawn)
4. CCCCc1nc(Cl)c(C2CC(c3cc(Cl)c(C)c(Br)c3O)=NN2c2nc(-c3ccc(Cl)cc3)cs2)[nH]1 (stereo not drawn)
5. CCCCc1nc(Cl)c(C2CC(c3cc(C)ccc3O)=NN2c2nc(-c3ccc(Cl)cc3)cs2)[nH]1 (stereo not drawn)
6. CCCCc1nc(Cl)c(C2CC(c3ccc(OC)cc3)=NN2c2nc(-c3ccc(Cl)cc3)cs2)[nH]1 (stereo not drawn)
7. CCCCc1nc(Cl)c(C2CC(c3cc(Cl)ccc3O)=NN2c2nc(-c3ccc(Cl)cc3)cs2)[nH]1 (stereo not drawn)

1: 14 mm; 2: 12 mm; 3: 19 mm; 4: 15 mm; 5: 12 mm; 6: 16 mm; 7: 16 mm
